Biological target: T1, CRBN, Q96SW2;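 also: pooled lentiviral library of zinc finger degron-EGFP fusions in mCherry-positive Jurkat cells, FACS-sorted after compound exposure, with degron abundance counted by next-generation sequencing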
T1 chain: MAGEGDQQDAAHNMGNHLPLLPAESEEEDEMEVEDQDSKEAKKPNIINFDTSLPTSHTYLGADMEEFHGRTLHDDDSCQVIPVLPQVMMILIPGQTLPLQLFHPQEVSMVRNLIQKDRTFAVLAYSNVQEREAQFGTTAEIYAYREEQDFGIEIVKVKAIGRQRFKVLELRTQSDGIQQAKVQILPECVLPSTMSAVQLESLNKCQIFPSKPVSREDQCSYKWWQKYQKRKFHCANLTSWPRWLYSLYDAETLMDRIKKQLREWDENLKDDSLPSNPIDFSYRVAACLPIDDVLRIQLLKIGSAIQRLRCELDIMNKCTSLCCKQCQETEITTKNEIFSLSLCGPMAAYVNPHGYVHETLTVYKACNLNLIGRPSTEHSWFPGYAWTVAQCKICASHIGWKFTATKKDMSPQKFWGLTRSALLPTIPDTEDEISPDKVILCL
Test: log2 fold change of degron read counts, EGFP-low vs EGFP+ sorted cells (limma voom), compound-induced degradation; higher = more compound-induced degradation of the degron-EGFP fusion; degrons are variants of IKZF1/3 zinc finger 2; compound dose not given here
Settings: Jurkat; 18 h; compound: thalidomide
Whole data set: some 8,300 sequences, median “log2 fold change of degron read counts, EGFP-low vs EGFP+ sorted cells (limma voom), compound-induced degradation” near -1.1, cut for the highest 2% near 3.2. The sample as a whole holds a higher share of the highest values than the screen did.
Quantity Measured: log2 fold change of degron read counts
Please reply with the number alone, leaving off any unit.

# input sequence: FCCPVCGAGFTQKGNLLRHIKL [46F_47C_49P_50V_52G_53A_54G_55F_67L_, Q9UKT9] ; wanted: its log2 fold change of degron read counts
1.26

# next sequence below
# query: log2 fold change of degron read counts of entry FLCPQCGAQFTQKGNLLRHIKL [46F_47L_49P_50Q_52G_53A_54Q_55F_67L_, Q9UKT9]
-0.585
